Source of measurements: patent US20230128889A1

# Test system: Rel hydrolase (HD)
# test description: Inhibition of Rel hydrolase activity: decrease of radioactive (p)ppGpp spot on TLC
# Format: biochemical
# stated conditions: radioactive (p)ppGpp incubated with enzyme, with vs without compound
measurement type: HD (inhibition of the hydrolase activity)

{"compound": "O=C1Nc2ccccc2/C1=N\\c1cccc([N+](=O)[O-])c1", "study target": "Rel hydrolase (HD)", "recorded result": "No"}
{"compound": "O=C(O)Cn1cc(/C=C2/C(=O)Nc3ccccc32)c2ccccc21", "study target": "Rel hydrolase (HD)", "recorded result": "No"}
{"compound": "O=C1OCc2ccc(-c3ccc(/C=N/Nc4nnn[nH]4)o3)cc21", "study target": "Rel hydrolase (HD)", "recorded result": "Yes"}
{"compound": "Cc1[nH]c2ccnn2c(=O)c1CC(=O)N(CCC(=O)O)CC1CCCO1 (centres unmarked)", "study target": "Rel hydrolase (HD)", "recorded result": "Yes"}
{"compound": "O=c1oc2cc(OCc3nnn[nH]3)ccc2cc1-c1ccc2ccccc2c1", "study target": "Rel hydrolase (HD)", "recorded result": "Yes"}
{"compound": "Cc1c(Cc2ccccc2)c(=O)oc2cc(OCc3ccc(C(=O)O)cc3)ccc12", "study target": "Rel hydrolase (HD)", "recorded result": "No"}

Please find the next compound below.
Entry `O=C(O)CCNS(=O)(=O)c1cc2c3c(cccc3c1)C(=O)NC2=O` has what HD (inhibition of the hydrolase activity)?
Yes
